For each entry below, report its Remaining (%) value.
- PROTOCOL TEXT: Evaluation of stability in liver microsome
- CONDITION PARAMETERS: mouse liver microsome 0.25 mg/mL, test compound 1 μM, 37° C., 30 minutes
One number for each entry, in %.

[[record]]
compound = "COCc1ccc(NC(=O)c2c(OCC3CCCO3)n(C3(C)CC3)c3ncnc(N)c23)cc1 (centres unmarked) [Example 135]"
reading = 67

[[record]]
compound = "COCc1ccc(NC(=O)c2c(C#CCN(C)C)n(C3(C)CC3)c3ncnc(N)c23)cc1 [Example 198]"
reading = 57

[[record]]
compound = "COCc1ccc(NC(=O)c2c(-c3cnn(C)c3)n(C3(C)CC3)c3ncnc(N)c23)cc1 [Example 150]"
reading = 78


Would you be so kind as to report Remaining (%) for each listed record?
1. COCc1ccc(NC(=O)c2c(F)n(C3(C)CC3)c3ncnc(N)c23)cc1 [Example 69]
2. COCc1ccc(NC(=O)c2c(C#Cc3cccs3)n(C3(C)CC3)c3ncnc(N)c23)cc1 [Example 119]
3. COCc1ccc(NC(=O)c2c(C#CCN3CC[S+]([O-])CC3)n(C3(C)CC3)c3ncnc(N)c23)cc1 [Example 178]

Output:
1: 69; 2: 70; 3: 88

For every item below, please supply its Remaining (%).
1. [2H]C([2H])([2H])OCc1ccc(NC(=O)c2cn(C(C)(C)C)c3ncnc(N)c23)cc1 [Example 35]
2. COCc1ccc(NC(=O)c2c(-c3ccc(CO)nc3)n(C3(C)CC3)c3ncnc(N)c23)cc1 [Example 179]

Output:
1. 58
2. 85

###

- PROTOCOL TEXT: Evaluation of stability in liver microsome
- CONDITION PARAMETERS: mouse liver microsome 0.25 mg/mL, test compound 1 μM, 37° C., 30 minutes
PROPERTY LABEL: Remaining (%)
One number for each entry, in %.

[[record]]
compound = "CC(C)(C)n1cc(C(=O)Nc2ccc(-c3cc[nH]n3)cc2)c2c(N)ncnc21"
unit_abbreviation = "%"
reading = 50

[[record]]
compound = "COCc1ccc(NC(=O)c2c(C#Cc3cncc(F)c3)n(C3(C)CC3)c3ncnc(N)c23)cc1"
unit_abbreviation = "%"
reading = 66

[[record]]
compound = "COCc1ccc(NC(=O)c2c(OC[C@H]3CCCO3)n(C3(C)CC3)c3ncnc(N)c23)cc1"
unit_abbreviation = "%"
reading = 69

[[record]]
compound = "COCc1ccc(NC(=O)c2cn(C3(C(F)F)CC3)c3ncnc(N)c23)cc1"
unit_abbreviation = "%"
reading = 65

[[record]]
compound = "COCc1ccc(NC(=O)c2c(C#CC3(O)CCOC3)n(C3(C)CC3)c3ncnc(N)c23)cc1 (centres unmarked)"
unit_abbreviation = "%"
reading = 72


Report Remaining (%) for each item below.
1. COCc1ccc(NC(=O)c2c(C#Cc3c[nH]c4ccccc34)n(C3(C)CC3)c3ncnc(N)c23)cc1
2. COCc1ccc(NC(=O)c2c(-c3ccc(NC(C)=O)nc3)n(C3(C)CC3)c3ncnc(N)c23)cc1
3. COCc1ccc(NC(=O)c2c(C#CCC(C)O)n(C3(C)CC3)c3ncnc(N)c23)cc1 (centres unmarked)

Output:
74
68
68
